Listed below: melting point values for each entry.

COc1cc(Oc2cccc(C(F)(F)F)c2)nc(C(=O)NN=C(C)c2ccccc2)c1: 181 to 182 °C
CNc1nc(NS(=O)(=O)c2ccc(N)cc2)cc(N2CCC2)n1: 295 to 296 °C
Cc1nc2c(N)nc3ccccc3c2n1CC1(O)CCC1: > 250 °C

// field: melting point; key: `CCN(c1nc(C)cc(C(=O)c2ccc(F)cc2)n1)c1ccc(C(C)C)cc1Br` ; value = 70 °C

// field: melting point; key: `Cc1ccc(C(=O)Nc2c(NC(=O)CN3CCOCC3)ccc3c2C(=O)c2ccccc2C3=O)cc1` ; value = 225 to 226 °C

// field: melting point; key: `CN1C(=O)N(c2c(Cl)cccc2Cl)Cc2cnc(NCc3ccccc3)nc21` ; value = 195 to 198 °C

Value source: a melting point compilation (Tetko et al.; mined from patent text by program, amines drawn as free bases though some values may be those of a salt)
